Measured protein stability index of individual entries
B1: KCNA4 (parent)
chain: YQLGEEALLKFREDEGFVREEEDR

Variants of: B1
Experiment: protein stability index of a GFP-peptide fusion (GPS, HEK-293T) (PSI 1-6); higher = more stable;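 also: lentivirally expressed fusions sorted by FACS into six bins by GFP to DsRed ratio, PSI derived from sequencing read proportions per bin multiplied by bin number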
Details: c terminus: a fixed tail appended
Quick one: just the number, no unit, thanks!

E15C :: 3.86

Endpoint output: protein stability index of D14C . Value? 4
